target: Glutathione peroxidase 1 (Homo sapiens) (UniProt P07203); experiment: Primary qHTS Assay for Inhibitors of Recombinant Selenoprotein Glutathione Peroxidase 1 (GPX1) (AID 1845191); details: recombinant GPX1, GR-coupled NADPH fluorescence, 15 min; series mostly up to 48.8 µM; note: nearly all actives have a fitted effect of over 65% in size
Sequence (P07203 whole entry, looked up): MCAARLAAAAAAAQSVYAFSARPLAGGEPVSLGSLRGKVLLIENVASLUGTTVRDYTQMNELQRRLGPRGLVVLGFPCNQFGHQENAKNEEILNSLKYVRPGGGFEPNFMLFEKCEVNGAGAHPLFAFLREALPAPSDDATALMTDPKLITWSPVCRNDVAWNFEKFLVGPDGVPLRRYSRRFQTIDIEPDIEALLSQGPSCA
Results filed as inconclusive are left out. Calls of active or inactive are those of the source. Calls come from the whole dose curve; as a rule, active = well fitted inhibition curve with a large enough effect; inconclusive = small, poorly fitted or top-dose-only effect; inactive = flat fitted curve, though single readings scatter. Bridge positions count the residues as written; N and C are the ends. Square brackets hold non-standard residues; d marks the D form. Peptide text beside a SMILES is read from it. * marks the point of attachment. Octanoyl(6-Me) = CCC(C)CCCCC(=O)*; Dab = NCC[CH](N)C(=O)O
Response enum: yes (1) = active, no (0) = inactive

Example cases with answers are listed next.
CN(C)CC(=O)O	no (0)
Clc1ccc(CCCOCCCN2CCCCC2)cc1	no (0)
O=C(Nc1ccc(-c2ccnc(Nc3ccc(N4CCOCC4)cc3)n2)cc1)[C@@H]1CCCN1	no (0)
CC(C)=C(C#N)C(=O)N1CCCN(c2cc(NCCC(=O)O)nc(-c3ccccn3)n2)CC1	no (0)
Cn1cc(CN2CCN(C(c3ccccc3)c3ccccc3)CC2)cc1C#N	no (0)
CN1CCN(C(c2ccc(Cl)cc2Cl)c2sc3nc(-c4ccco4)nn3c2O)CC1 (centres undefined)	no (0)
CCC(C)CCCCC(=O)NC(CCN)C(=O)NC(C(=O)NC(CCN)C(=O)NC1CCNC(=O)C(C(C)O)NC(=O)C(CCN)NC(=O)C(CCN)NC(=O)C(CC(C)C)NC(=O)C(Cc2ccccc2)NC(=O)C(CCN)NC1=O)C(C)O (centres undefined) ({Octanoyl(6-Me)}-[Dab]T[Dab][Dab][Dab]FL[Dab][Dab]T; lactam 4-C; configuration not given here)	no (0)
CCCCC(=O)N(Cc1ccc(-c2ccccc2-c2nn[nH]n2)cc1)[C@H](C(=O)O)C(C)C	no (0)
CN(C)CCCOc1ccc(-c2ccc3ncc4c(c3c2)n(C2CCOCC2)c(=O)n4C)cn1	no (0)
C=Cc1c(C)c2cc3nc(c(CC(=O)N[C@@H](CC(=O)O)C(=O)O)c4nc(cc5[nH]c(cc1[nH]2)c(C)c5CC)C(C)=C4C(=O)O)[C@@H](CCC(=O)O)[C@@H]3C	no (0)

Please look at the following compound next.
q: Hello, I am checking results. What call was entered for C=C1/C(=C/C=C2\CCC[C@]3(C)[C@@H]([C@H](C)CCCC(C)(C)O)CC[C@@H]23)C[C@@H](O)[C@@H](OCCCO)[C@@H]1O ?
a: no (0)

---

Target: Rap guanine nucleotide exchange factor 3 (Homo sapiens) (UniProt O95398)
Experiment: Counterscreen qHTS for agonist of cAMP-regulated guanine nucleotide exchange factor 3 (EPAC1) (AID 1645889); note: % of control where 0% means no effect; nearly all actives have a fitted effect of over 40% in size
Conditions: EPAC1 Rap1B-BODIPY-GDP exchange, fluorescence; series mostly up to 154 µM
Text: Assay Provider (PI): Xiaodong Cheng Ph.D. The University of Texas Medical Branch, […], TX MLPCN Grant: NS066510 In multi-cellular eukaryotic organisms, the effects of cAMP are transduced by two ubiquitously-expressed intracellular cAMP receptors, the classic protein kinase A/cAMP-dependent protein kinase (PKA/cAPK) and the more recently discovered exchange protein directly activated by cAMP/cAMP-regulated guanine nucleotide exchange factor (EPAC/cAMP-GEF). […]
Results filed as inconclusive are left out. Active and inactive are the calls of the source. Calls follow the shape of the dose curve; as a rule, active = well fitted activation curve with a large enough effect; inconclusive = small, poorly fitted or top-dose-only effect, or another doubt; inactive = no such curve, though single readings can be large or run the other way.
ASSAY ENDPOINT: activation

O=C(O)Cc1ccc(C(=O)c2ccc(Cl)cc2Cl)s1	inactive
CCCOP(=O)(OCCC)C(Nc1cccc(C(F)(F)F)c1)c1ccc(C)cc1 (stereo not drawn)	inactive
O=C(CC1C[C@H](C(=O)N2CCCCC2)[C@@]2(CCc3ccccc3)c3[nH]c4ccccc4c3CCN2C1=O)NCCCn1ccnc1 (stereo partly drawn)	inactive
CNc1ccc(/C=C(\CCC(=O)O)c2nc3ccccc3s2)cc1[N+](=O)[O-]	19.8% [at 30.8 µM] (inactive)
Cc1cc(C)c(Nc2cc(S(=O)(=O)O)c(N)c3c2C(=O)c2ccccc2C3=O)c(C)c1	inactive
O=C1/C(=C\c2ccc(O)c(O)c2)C(c2ccccc2)=NN1c1ccccc1	inactive
CC(C)C(NC(=O)C1CC(=O)N(Cc2ccccc2)C1)c1nc2ccccc2[nH]1 (stereo not drawn)	inactive
COc1cc(OC)c(-c2cc(C(=O)O)ccc2OC)c(OC)c1	38.4% [at 30.8 µM] (inactive)

q: GET /values?readout=activation&item= COc1ccc(C(=O)N(CCc2ccccc2)Cc2cccs2)c(OC)c1
a: inactive

q: Same thing, different molecule: Cc1ccc(S(=O)(=O)/N=C2\C=C(NS(=O)(=O)c3ccccc3)C(=O)c3ccccc32)cc1
a: inactive
